Values were extracted from patent US20220177604A1.

target: T1, human immunoglobulin E (hIgE) (human, UniProt P01854-1 1-428); test: competition ELISA, biotin-hIgE to coated hFcεRIα, pH 6
T1 construct: also called human IgE; Native IgE (Abcam)
T1 sequence (P01854 whole entry): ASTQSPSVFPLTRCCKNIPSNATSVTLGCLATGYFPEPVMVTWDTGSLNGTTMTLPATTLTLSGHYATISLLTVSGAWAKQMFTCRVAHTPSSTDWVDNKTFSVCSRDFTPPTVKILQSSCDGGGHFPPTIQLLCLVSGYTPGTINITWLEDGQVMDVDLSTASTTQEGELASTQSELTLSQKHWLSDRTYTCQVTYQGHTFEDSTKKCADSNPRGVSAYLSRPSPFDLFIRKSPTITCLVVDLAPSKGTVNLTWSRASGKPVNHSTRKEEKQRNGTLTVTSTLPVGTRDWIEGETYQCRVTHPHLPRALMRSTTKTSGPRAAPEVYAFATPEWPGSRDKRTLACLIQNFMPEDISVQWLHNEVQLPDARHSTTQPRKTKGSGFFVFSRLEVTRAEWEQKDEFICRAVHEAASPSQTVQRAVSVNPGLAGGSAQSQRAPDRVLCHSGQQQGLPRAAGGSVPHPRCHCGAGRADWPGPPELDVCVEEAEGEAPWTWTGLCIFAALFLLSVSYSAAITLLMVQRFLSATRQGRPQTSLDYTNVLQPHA
Parameter: IC50 (nM)
API: value field is a number in nM; no unit string.

Binder	Units Label	IC50
18E2 human IgG1 mAb (antibody, V domains shown, also called clone 18E2) VH: QLQLVESGGGLVQPGGSLRLSCAASGFTFSSYVMSWVRQAPGKGLEWVSSIYHDGSHTYYADFVKGRFTISRDNAKNTLYLQMNSLKSEDTAVYYCASGTSYSGSYYYTDPFFGSWGQGTQVTVSS VL: NFMLTQPSALSVTLGQTARITCQGDRLGSRYIYWYQQKPPQAPVLVIHDDDRRPSGIPERFSGSSSGGTATLTISGAQAEDDGDYYCQSADSSGNPVFGGGTHLTVL	nM	87.8
18B9 human IgG1 mAb (antibody, V domains shown, human IgG1 and human light chain constant domains; also called clone 18B9) VH: QVQLVESGGGLVQPGGSLRLSCAASGFTFSSYVMSWVRQAPGKGLEWVSSIYSDGSHTYYADSVKGRFTISRDNAKNTLYLQMNSLKSEDTAVYYCAKNLEHYSGSYYYTDPRYDYWGQGTQVTVSS VL: SSALTQPSALSVTLGQTAKITCQGGSLGSSYVHWYQQKPGQAPVLVIYDGDSRPSGIPERFSGSSSGGTATLTISGAQAEDEDDYYCQSADSSGNAVFGGGTHLTVL	nM	112

Inquiry: Using the record for 3A1 human IgG1 mAb (antibody, V domains shown, human IgG1 and human light chain constant domains; also called clone 3A1) VH: EVQVQESGGGLVQPGGSLRLSCAASGFTFDNYAMSWVRQAPGKGLEWVSAISWNGGSTYYAESMKGRFTISRDNAKNMLYLQMNSLKSEDTAVYYCAKDLLVAARGGMDYWGKGTLVTVSS VL: SSALTQPSAVSVSLEQTARITCQGGTLGSYGAHWYQQKPGQAPVLLIYGDNSRPSGIPERFSGTRSGGTATLTISGAQAEDEADYYCQSFDYSGNAVFGGGTHLTVL , report its IC50.
Reply text: 148

Inquiry: Using the record for 3D1 human IgG1 mAb (antibody, V domains shown, human IgG1 and human light chain constant domains; also called clone 3D1; WT 3D1) VH: QLQVVESGGGLVQPGGSLRLSCAASGFTFSSYYMSWVRQAPGKGLEWVSSIYSDGRGSKTFYADSVKGRFTISRDNAKNTLYLQMNSLKSEDTAVYFCAKDLLVAARGSMDYWGQGTQVTVSS VL: NFMLTQPSAVSVSLEQTARITCQGGTLGSYGAHWYQQKPGQAPVLLIYGDNSRPSGIPERFSGTRSGGTATLTISGAQAEDEADYYCQSFDYSGNAVFGGGTHLTVL , report its IC50.
Reply text: 118

Inquiry: Using the record for 16E4 human IgG1 mAb (antibody, V domains shown, also called clone 16E4) VH: EVQLVESGGGLVQPGGSLRLSCAASGFTFSSYYMSWVRQAPGKGLEWVSSIYSDGSYAYYADSVKGRFTISRDNAKNTLYLQMNSLKSEDTAVYYCAKDLKARYSGTYHDEGYDYWGQGTQVTVSS VL: SSALTQPSALSVTLGQSAKITCQGGSLGATYAYWYQQKPGQAPVLVIYDDDSRPSGIPERFSGSSSGGRATLTISGAQAEDEGDYYCQSAYSNGNAVFGGGTHLTVL , report its IC50.
Reply text: 156

Inquiry: Using the record for 3D6 human IgG1 mAb (antibody, V domains shown, human IgG1 and human light chain constant domains; also called clone 3D6) VH: QVQLVESGGGLVQPGGSLRLSCAASGFTFSSYYMTWVRQAPGKGLEWVSSIYSDGSNTYYADSVKGRFTISRDNAKNTLHLQMNSLKSEDTAVYYCAKDLKARYSGSYHDEGYDYWGQGTQVTVSS VL: QSALTQPSALSVTLGQTAKITCQGGSLGSSYAHWYQQKPGQAPVLVIYDDDSRPSGIPERFSGSSSGGRATLTISGAQAEDEGDYYCQSADSSGNPVFGGGTKLTVL , report its IC50.
Reply text: 214
